# Test system: HCT116
# protocolDescription: viability inhibition vs untreated; higher = more cytotoxic
# reportedConditions: genotype: MTA1-KO; 16 nM; 72 h
Structures can show the parent of a compound that is named as a salt.
So I've got a bunch of molecules here, and I need their viability inhibition values.
The response must be a number in % with no trailing unit.

Query CN1CCN(C(=O)COc2ccc(C34CC5CC(CC(C5)C3)C4)cc2)CC1 yields viability inhibition of 0.53

Form field viability inhibition, entry CC1(C)CC[C@]2(C(=O)O)CC[C@]3(C)[C@H](C(=O)C=C4[C@@]5(C)C=C(C#N)C(=O)C(C)(C)[C@@H]5CC[C@]43C)[C@@H]2C1 [Bardoxolone] : 6.64

viability inhibition measured on CCc1ccc(/C=C2/SC(=S)NC2=O)cc1 = -4.9

GET /value?item= NS(=O)(=O)c1ccccc1 [Benzenesulfonamide] &field=viability inhibition returns 3.96

Per the records, this molecule ( COc1ccc2[nH]c([S@@+]([O-])Cc3ncc(C)c(OC)c3C)nc2c1 [Esomeprazole Sodium] ) has viability inhibition equal to 3.92

Memo: C[C@H]1CCC/C=C/[C@@H]2C[C@H](O)C[C@H]2[C@H](O)/C=C/C(=O)O1 [Brefeldin A] , reported viability inhibition: -15.6

Looking up N[C@@H]1C[C@H]1c1ccccc1 [Tranylcypromine (2-PCPA) hydrochloride] , I found its viability inhibition recorded as -22.8

Form field viability inhibition, entry c1cc(-c2cnn3cc(-c4ccc(OCCN5CCCCC5)cc4)cnc23)ccn1 [Dorsomorphin dihydrochloride] : -1.27
